Molecular target: DRP1 (Homo sapiens)
Construct: Human DRIP1 (UniProtID: O00429.4, residues 1-699)
Assay: AlphaLISA assay (His-DRP1 / MiD49-GST interaction)
Conditions: His-DRP1 200 nM, MiD49-GST 20 nM, GMP-PNP 100 uM
pIC50: −log10 of the molar value.
Quick reference for pIC50 among some compounds

As a guide, the following entries are already answered.
[
  {
    "Compound": "COCCOc1cc(-c2cncs2)nc2ccc(NC(=O)C34CC(C3)C4)cc12 [Example 31]",
    "pIC50": "5.00 to 6.00"
  },
  {
    "Compound": "O=C(Nc1ccc2nc(-c3cncs3)cc(OCCO)c2c1)C1COC1 [Example 9]",
    "pIC50": "> 6.30"
  },
  {
    "Compound": "CCOc1cc(-n2cnc(C)c2)nc2c(C)cc(NC(=O)C3COC3)cc12 [Example 54]",
    "pIC50": "5.00 to 6.00"
  },
  {
    "Compound": "CCOc1cc(-c2cncs2)nc2ccc(NC(=O)C34CC(C3)C4)cc12 [Example 4]",
    "pIC50": "6.00 to 6.30"
  }
]

With those in mind, consider the next compound.
stdin: Look up and report measured pIC50 (DRP1 (Homo sapiens)) for the following compound: COCCOc1cc(-c2cncs2)nc2ccc(NC(=O)c3cnoc3)cc12 [Example 35]
stdout: 6.00 to 6.30

----------
Below, each entry is listed with its recorded IC50.
Target: DRP1 (Homo sapiens, UniProt O00429)
Construct: Human DRIP1 (UniProtID: O00429.4, residues 1-699); made in house; host or cells: Escherichia coli BL21 CodonPlus DE3
Sequence (O00429 1-699 isoform O00429-4): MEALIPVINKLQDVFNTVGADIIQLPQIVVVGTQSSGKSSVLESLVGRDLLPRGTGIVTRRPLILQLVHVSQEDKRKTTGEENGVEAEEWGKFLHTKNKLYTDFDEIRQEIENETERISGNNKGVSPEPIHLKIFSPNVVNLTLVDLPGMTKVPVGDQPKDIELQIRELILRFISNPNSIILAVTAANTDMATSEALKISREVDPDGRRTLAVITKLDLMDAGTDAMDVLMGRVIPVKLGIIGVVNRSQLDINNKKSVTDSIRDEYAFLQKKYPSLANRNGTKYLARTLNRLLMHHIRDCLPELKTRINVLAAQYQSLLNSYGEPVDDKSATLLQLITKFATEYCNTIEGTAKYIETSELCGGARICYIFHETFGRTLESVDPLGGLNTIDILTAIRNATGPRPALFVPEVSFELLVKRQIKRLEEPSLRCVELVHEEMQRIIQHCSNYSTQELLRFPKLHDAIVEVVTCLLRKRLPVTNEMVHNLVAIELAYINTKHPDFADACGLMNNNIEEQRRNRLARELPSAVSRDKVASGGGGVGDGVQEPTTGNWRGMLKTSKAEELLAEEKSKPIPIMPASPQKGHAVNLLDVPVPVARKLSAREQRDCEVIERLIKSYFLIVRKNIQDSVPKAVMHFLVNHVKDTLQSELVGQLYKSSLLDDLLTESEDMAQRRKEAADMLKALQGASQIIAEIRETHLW
Assay: AlphaLISA assay (His-DRP1 / MiD49-GST interaction)
Format: binding
Conditions: His-DRP1 200 nM, MiD49-GST 20 nM, GMP-PNP 100 uM

Use these answered entries as a reference point.
[
  {
    "Compound": "CCOc1cc(-n2cnc(C#N)c2)nc2ccc(NC(=O)C3COC3)cc12",
    "Result": "1000 to 10000 nM"
  },
  {
    "Compound": "COCCOc1cc(-c2cncs2)nc2ccc(NC(=O)[C@@H](C)OC)cc12",
    "Result": "< 500 nM"
  },
  {
    "Compound": "COCCOc1cc(-c2cncs2)nc2ccc(NC(=O)[C@H]3C[C@H](O)C3)cc12",
    "Result": "< 500 nM"
  }
]

Could you now consider this next compound?
stdin: Let me know recorded IC50 for COCCOc1cc(-c2cncs2)nc2ccc(NC(=O)C3CCCOC3)cc12 (stereo not drawn) , thanks.
stdout: < 500 nM

----------
Molecular target: DRP1 (Homo sapiens)
Construct: Human DRIP1 (UniProtID: O00429.4, residues 1-699)
Test: AlphaLISA assay (His-DRP1 / MiD49-GST interaction)
Conditions: His-DRP1 200 nM, MiD49-GST 20 nM, GMP-PNP 100 uM
pIC50: −log10 of the molar value.
Listed next: entries and their corresponding pIC50.

# count of solved cases: 3
[
  {
    "Compound": "COC[C@H](C)Oc1cc(-c2cncs2)nc2ccc(NC(=O)C(C)C#N)cc12 (stereo partly drawn) [Example 48]",
    "Result": "6.00 to 6.30"
  },
  {
    "Compound": "COCCOc1cc(-c2cncs2)nc2ccc(NC(=O)C3(OC)CC3)cc12 [Example 29]",
    "Result": "< 5.00"
  },
  {
    "Compound": "COCC(C)(C)Oc1cc(-c2cncs2)nc2ccc(NC(=O)C3COC3)cc12 [Example 39]",
    "Result": "5.00 to 6.00"
  }
]

stdin: Output measured pIC50 for this item: COCCOc1cc(-c2cncs2)nc2ccc(NC(=O)C3CC3C(F)(F)F)cc12 (stereo not drawn) [Example 20]
stdout: 5.00 to 6.00

stdin: Give the reported value of pIC50 for this record: CCOc1cc(-c2cnc(OC)s2)nc2ccc(NC(=O)C3COC3)cc12 [Example 7]
stdout: > 6.30

stdin: For the compound COCCOc1cc(-n2cnc(C3CC3)c2)nc2ccc(NC(=O)C3COC3)cc12 [Example 40] , report pIC50.
stdout: > 6.30
